Test: Cytotoxicity against human THP1 cells
Format: cell-based
Details: THP-1 cells
assay_endpoint: CC50

Challenge: State the recorded CC50 for this entry: CCCCCCCCCCCCCCCCOP(=O)([O-])OCC[N+](C)(C)C [MILTEFOSINE]
Response given: 22.7 µM

Challenge: State the recorded CC50 for this entry: "COc1ccc(NC(=O)c2c(NC(C)=O)sc3c2CCCCC3)cc1"
Response given: > 50 µM

Challenge: State the recorded CC50 for this entry: "Cc1ccc(NC(=O)c2c(NC(=O)C(F)(F)F)sc3c2CCCCC3)cc1"
Response given: > 50 µM

Challenge: State the recorded CC50 for this entry: "O=C(Nc1ccc(OC(F)(F)F)cc1)c1c(NC(=O)C(F)(F)F)sc2c1CCCCC2"
Response given: 11.9 µM

# context switch: different compound, same CC50
Challenge: State the recorded CC50 for this entry: "COc1cccc(NC(=O)c2c(NC(=O)C(F)(F)F)sc3c2CCCCC3)c1"
Response given: 37.6 µM

###

Assay: Selectivity index, ratio of CC50 for human THP1 cells to EC50 for amastigote stage of Leishmania donovani MHOM/ET/67/HU3
Type: toxicity, cell-based
Details: THP-1 cells, read-out: Ratio CC50/EC50
assay_endpoint: selectivity ratio
Answer with the value's number alone.

Challenge: State the recorded selectivity ratio for this entry: "O=C(Nc1ccc(C(F)(F)F)cc1)c1c(NC(=O)C(F)(F)F)sc2c1CCCCC2"
Response given: 0.9

# context switch: different molecule, same selectivity ratio
Challenge: State the recorded selectivity ratio for this entry: "O=C(Nc1ccc(OC(F)(F)F)cc1)c1c(NC(=O)C(F)(F)F)sc2c1CCCCC2"
Response given: 1.2

###

Assay: Cytotoxicity against human THP1 cells
Type: cell-based
Conditions: THP-1 cells
Recorded CC50, one value per entry.

Challenge: State the recorded CC50 for this entry: "COc1ccccc1NC(=O)c1c(NC(=O)C(F)(F)F)sc2c1CCCCC2"
Response given: > 50 µM

Challenge: State the recorded CC50 for this entry: "COc1ccc(CNC(=O)c2c(NC(=O)C(F)(F)F)sc3c2CCCCC3)cc1"
Response given: > 50 µM

Challenge: State the recorded CC50 for this entry: "COc1ccc(NC(=O)c2c(NC(=O)C(F)(F)F)sc(C)c2C)cc1"
Response given: > 50 µM

Challenge: State the recorded CC50 for this entry: C[C@@H]1[C@H](O)[C@@H](C)/C=C/C=C/C=C/C=C/C=C/C=C/C=C/[C@H](O[C@@H]2O[C@H](C)[C@@H](O)[C@H](N)[C@@H]2O)C[C@@H]2O[C@](O)(C[C@@H](O)C[C@@H](O)[C@H](O)CC[C@@H](O)C[C@@H](O)CC(=O)O[C@H]1C)C[C@H](O)[C@H]2C(=O)O [AMPHOTERICIN B]
Response given: 7.57 µM

Challenge: State the recorded CC50 for this entry: "COc1ccc(NC(=O)c2c(NC(=O)c3ccccc3)sc3c2CCCCC3)cc1"
Response given: > 50 µM

Challenge: State the recorded CC50 for this entry: "COc1ccc(NC(=O)c2c(NC(=O)C(F)(F)F)sc3c2CCCC3)cc1"
Response given: > 50 µM

More entries:
Challenge: State the recorded CC50 for this entry: "O=C(Nc1ccc(C(F)(F)F)cc1)c1c(NC(=O)C(F)(F)F)sc2c1CCCCC2"
Response given: 17.2 µM

Challenge: State the recorded CC50 for this entry: "CC(C)(C)NC(=O)c1c(NC(=O)C(F)(F)F)sc2c1CCCCC2"
Response given: > 50 µM

Challenge: State the recorded CC50 for this entry: "COc1ccc(NC(=O)c2c(NC(=O)C(F)(F)F)sc3c2CCC3)cc1"
Response given: > 50 µM

Challenge: State the recorded CC50 for this entry: "COC(=O)Nc1sc2c(c1C(=O)Nc1ccc(OC)cc1)CCCCC2"
Response given: > 50 µM
